target system: GORASP2, Q9H8Y8
experiment summary: holdup assay
Design: key: below the threshold = too weak to quantify, mostly under pKd 3.1 to 4
condition label: plain residues with an end cap or a label only (N-terminal biotin on a linker: ttds)
pKd: recorded values
measure: pKd

# binder, test result
rows = [
    ("SKPTRRETEV [HPV35-E6, P27228]", 3.82),
    ("RLPKIKETTV [FRMPD4, Q14CM0]", 4.02),
    ("SGSRPSATVV [HPV73-E6, Q82005]", 4.13),
    ("QRQARSETLV [HPV59-E6, Q81964]", 4.34),
    ("RLQRRRETQV [HPV18-E6, P06463]", 3.89),
    ("SSLQSLETSV [ATP2B4, P23634]", 3.98),
    ("RPLPRKVSQL [DOCK4, Q8N1I0]", 4.85),
]
